From: ChEMBL document CHEMBL1201862

System: COLO 205
Assay: NCI tumour cell line growth inhibition, 48 h
Activity calls are given as the source filed them. Rule as the data show it: active = GI50 up to about 1.1 µM and inactive = higher.
Possible outcomes: 1 (yes) for active, 0 (no) for inactive

[[record]]
compound = "O=C(CC(=O)N1N=C(n2ccc3ccccc32)CC1c1ccccc1)Nc1ccc(Cl)cc1 (configuration not stated)"
group_label = "0 (no)"

[[record]]
compound = "CC(C)OC(=O)c1ccc(NCC2=CC(=O)C=CC2=O)cc1"
group_label = "0 (no)"

[[record]]
compound = "O=C1c2ccccc2C2=Nc3ccncc3CN12"
group_label = "0 (no)"

[[record]]
compound = "CC(C)(C)c1ccc(C(O)(c2ccc(C(C)(C)C)cc2)c2ccc(C(C)(C)C)cc2)cc1"
group_label = "0 (no)"

[[record]]
compound = "Cc1ccc(NC(=O)CC2SC(Nc3cccc(Cl)c3C)=NC2=O)cc1 (configuration not stated)"
group_label = "0 (no)"

[[record]]
compound = "Cc1cc(S(=O)(=O)Nc2nc3ccccc3c(=O)n2N)c(S)cc1Cl"
group_label = "0 (no)"

[[record]]
compound = "Oc1cn(-c2ccc(Cl)cc2)nc1-c1nnc(Nc2ccccc2)o1"
group_label = "0 (no)"

[[record]]
compound = "Brc1ccccc1-c1ncc(-c2ccccc2)o1"
group_label = "0 (no)"

[[record]]
compound = "Cc1cccc2c(NCCN(C)C)c3cccc(C(=O)NCCN(C)C)c3nc12"
group_label = "1 (yes)"

[[record]]
compound = "CNC/C(Cl)=N/S(=O)(=O)c1ccc(C)cc1"
group_label = "0 (no)"

[[record]]
compound = "O=C1CCCC2=C(N1)C(=O)C=CC2=O"
group_label = "0 (no)"

[[record]]
compound = "O=C(N(C1=CCCC1)N(c1ccccc1)c1ccccc1)C(F)(F)F"
group_label = "0 (no)"

[[record]]
compound = "CC1=C(C(=O)OCCc2ccc([N+](=O)[O-])cc2)C(c2ccccc2[N+](=O)[O-])C(C(=O)OC(C)C)=C(C)N1 (configuration not stated)"
group_label = "0 (no)"

[[record]]
compound = "CCOC(=O)c1ccc(/N=C2\\S/C(=C\\C(=S)Nc3ccccc3)N(c3ccccc3)\\C2=N/c2ccc(C(=O)OCC)cc2)cc1"
group_label = "0 (no)"

[[record]]
compound = "COP(=O)(O)/C=C/C(NC(=O)C(Cl)(Cl)Cl)c1ccccc1 (configuration not stated)"
group_label = "0 (no)"

[[record]]
compound = "c1ccc(C2N=NN(c3ccccc3)C2N2CCCCC2)cc1 (configuration not stated)"
group_label = "0 (no)"

[[record]]
compound = "COc1ccc(C)cc1Nc1nnc(-c2ccc(N)cc2)s1"
group_label = "0 (no)"

[[record]]
compound = "O=C(N/C(=C\\c1ccc([N+](=O)[O-])cc1)c1nc2c(O)nc(S)nc2[nH]1)c1ccccc1"
group_label = "0 (no)"

[[record]]
compound = "O=C1CNS(=O)(=O)N1"
group_label = "0 (no)"

[[record]]
compound = "O=c1[nH]/c(=C/c2ccc(OCc3ccccc3)cn2)c(=O)[nH]/c1=C/c1ccc(F)cc1"
group_label = "1 (yes)"

[[record]]
compound = "COC(=O)c1cccc(OC)c1C#Cc1c(OC)cccc1OC"
group_label = "0 (no)"

[[record]]
compound = "C=CC(=O)N1C/C(=C\\c2ccc(N(C)C)cc2)C(=O)/C(=C/c2ccc(N(C)C)cc2)C1"
group_label = "0 (no)"

